# Test system: Clostridium difficile
# METHOD DESCRIPTION: growth AUC relative to DMSO control (median of replicates) (fraction); higher = more growth (less inhibition), active = hit call of the paper
# CONDITION SUMMARY: 20 µM; 24 h
The reader will find reported growth AUC values listed item by item below.
// response body must contain only the number

> print(dat)
                                   molecule  quantitative.result
1                             Cc1cccc(C)c1N                0.997
2               COC(=O)COc1cc(Cl)c(Cl)cc1Cl                 1.01
3  ClCC1C(CCl)C2(Cl)C(Cl)=C(Cl)C1(Cl)C2(Cl)Cl (centres undefined)                0.989
4               CNC(=O)Oc1cccc2c1OC(C)(C)O2                 1.06
5  CC1(C)C(C=C(Cl)Cl)C1C(=O)OC(C#N)c1cccc(Oc2ccccc2)c1 (mixture of isomers)                 1.04

Reported growth AUC, molecule CCSC(=O)N1CCCCCC1 : ____ 0.992

Request: CCOP(=S)(OCC)Oc1ccc([N+](=O)[O-])cc1 1

Request: CC(=O)CC(c1ccco1)c1c(O)c2ccccc2oc1=O (centres undefined) 1.02

Request: COC(=O)C1(O)c2ccccc2-c2ccccc21 0.991

Request: CC(COc1ccc(Oc2ccccc2)cc1)Oc1ccccn1 (centres undefined) 0.99

Request: N#CCNC(=O)c1cnccc1C(F)(F)F 0.99

Request: Nc1ncn[nH]1 1.01

Request: CC(C)=CC1C(C(=O)OCc2coc(Cc3ccccc3)c2)C1(C)C (centres undefined) 1.02

###

# Test system: Coprococcus comes
# METHOD DESCRIPTION: growth AUC relative to DMSO control (median of replicates) (fraction); higher = more growth (less inhibition), active = hit call of the paper
# CONDITION SUMMARY: 20 µM; 24 h
# binarize growth AUC: threshold 1 inclusive, high side Y, low side N

Solved cases below.
> print(dat)
                                   molecule  category
1  Cc1ccc(-c2c(Cl)nc(C#N)n2S(=O)(=O)N(C)C)cc1         Y
2                     C[N+](C)(C)CCCl.[Cl-]         Y

# bool: growth AUC of O=c1oc2ccccc2c(O)c1C1CCCc2ccccc21 (stereo not drawn) >= 1 N

Request: Cc1cc(C2CC2)nc(Nc2ccccc2)n1 Y

Request: COc1cc(C)c(C(=O)c2c(OC)ccc(Br)c2C)c(OC)c1OC Y

Request: O=[N+]([O-])c1c(Cl)c(Cl)c(Cl)c(Cl)c1Cl N

Request: CC1(C)[C@H](/C=C(\Cl)C(F)(F)F)[C@@H]1C(=O)O[C@@H](C#N)c1cccc(Oc2ccccc2)c1 N

Request: Clc1nc(Cl)nc(Nc2ccccc2Cl)n1 Y

Request: CCOP(=S)(Oc1ccc([N+](=O)[O-])cc1)c1ccccc1 (stereo not drawn) N

###

The reader will find reported growth AUC values listed item by item below.
# Tested on: Collinsella aerofaciens
# METHOD DESCRIPTION: growth AUC relative to DMSO control (median of replicates) (fraction); higher = more growth (less inhibition), active = hit call of the paper
# CONDITION SUMMARY: 20 µM; 24 h
// response body must contain only the number

> print(dat)
                                   compound  endpoint.name  quantitative.result
1   COCC(=O)N(c1c(C)cccc1C)[C@@H](C)C(=O)OC     growth AUC                0.973
2  CC(C)(C)c1cc([N+](=O)[O-])cc([N+](=O)[O-])c1O     growth AUC                 0.96
3  CCNc1nc(NC(C)C(C)C)nc(SC)n1 (stereo not drawn)     growth AUC                 1.05

Reported growth AUC, compound O=C(Nc1ccccc1)Nc1cnns1 : ____ 0.969

Request: CCc1cc(C)cc(CC)c1-c1c(OC(=O)C(C)(C)C)n2n(c1=O)CCOCC2 1

###

The reader will find reported growth AUC values listed item by item below.
# Tested on: Escherichia coli ED1a
# METHOD DESCRIPTION: growth AUC relative to DMSO control (median of replicates) (fraction); higher = more growth (less inhibition), active = hit call of the paper
# CONDITION SUMMARY: 20 µM; 24 h
// response body must contain only the number

> print(dat)
                         compound.structure          system.tested  endpoint.name  quantitative.result
1                        CCCCN(CC)C(=O)SCCC  Escherichia coli ED1a     growth AUC                 1.01
2  COc1cccc(C(=O)NN(C(=O)c2cc(C)cc(C)c2)C(C)(C)C)c1C  Escherichia coli ED1a     growth AUC                0.974

Reported growth AUC, compound N#Cc1c(Cl)c(Cl)c(Cl)c(C#N)c1Cl : ____ 0.967

Request: CNC(=O)c1cc(Cl)cc(C)c1NC(=O)c1cc(Br)nn1-c1ncccc1Cl 0.988

Request: CN(C)C(=O)Nc1cccc(C(F)(F)F)c1 1.01

Request: CON(C)C(=O)Nc1ccc(Br)cc1 1.02

###

# System: Collinsella aerofaciens
# METHOD DESCRIPTION: growth AUC relative to DMSO control (median of replicates) (fraction); higher = more growth (less inhibition), active = hit call of the paper;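 active = AUC reduced over 20% with Padj below 0.05 in at least 2 of 3 replicates; inactive = otherwise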
# CONDITION SUMMARY: 20 µM; 24 h
Form entry, call: pick from 1.0 (active), 0.0 (inactive)

Solved cases below.
> print(dat)
                          compound  category
1             CNC(=O)CSP(=O)(OC)OC       0.0
2                N#Cc1c(Cl)cccc1Cl       0.0
3  CCCOCCN(C(=O)CCl)c1c(CC)cccc1CC       0.0

Query: recorded result category for O=C(Nc1ccccc1)Nc1ccnc(Cl)c1 in this test 0.0

Request: COc1ccc(C(c2ccc(OC)cc2)C(Cl)(Cl)Cl)cc1 0.0

Request: C=CCC1=C(C)C(OC(=O)C2C(C=C(C)C)C2(C)C)CC1=O (mixture of isomers) 0.0

Request: O=C(Nc1ccccc1)c1ccccc1I 0.0

Request: O=C(O)c1ccc(=O)[nH]c1 0.0

Request: CCCCN(CCCC)SN(C)C(=O)Oc1cccc2c1OC(C)(C)C2 0.0

Request: CNC(=O)Oc1ccccc1OC(C)C 0.0

###

# Test system: Parabacteroides merdae
# METHOD DESCRIPTION: growth AUC relative to DMSO control (median of replicates) (fraction); higher = more growth (less inhibition), active = hit call of the paper;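 active = AUC reduced over 20% with Padj below 0.05 in at least 2 of 3 replicates; inactive = otherwise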
# CONDITION SUMMARY: 20 µM; 24 h
Form entry, call: pick from 1 (active), 0 (inactive)

> print(dat)
                                   molecule  category
1  CC1(C)C(C=C(Cl)Cl)[C@@H]1C(=O)O[C@@H](C#N)c1ccc(F)c(Oc2ccccc2)c1 (stereo partly specified)         0

Query: recorded result category for CCCN(CCC)c1c([N+](=O)[O-])cc(C(F)(F)F)cc1[N+](=O)[O-] in this test 0

Request: c1ccc2c(c1)-c1cccc3cccc-2c13 0

Request: COc1cc(OC)nc(NC(=O)[N-]S(=O)(=O)c2ncccc2OCC(F)(F)F)n1.[Na+] 0

Request: COC(=O)NS(=O)(=O)c1ccc(N)cc1 1

Request: O=C(O)c1c(Cl)ccc2cc(Cl)cnc12 0

Request: N#Cc1sc2c(=O)c3ccccc3c(=O)c=2sc1C#N 0

Request: O=[N+]([O-])c1ccc(Oc2ccc(Cl)cc2Cl)cc1 0

Request: CCSCc1ccccc1OC(=O)NC 0

Request: COC(=O)COc1cc(Cl)c(Cl)cc1Cl 0

Request: CC#Cc1cc(C)nc(Nc2ccccc2)n1 0

Request: ClC1=C(Cl)C2(Cl)[C@H]3[C@@H]4O[C@@H]4[C@H](Cl)[C@H]3C1(Cl)C2(Cl)Cl (single isomer, unassigned; isomer b) 0

Request: CON(C)C(=O)Nc1ccc(Br)cc1 0

Request: Cc1cc(Cl)ccc1O[C@H](C)C(=O)O 0

###

# Tested on: Streptococcus salivarius
# METHOD DESCRIPTION: growth AUC relative to DMSO control (median of replicates) (fraction); higher = more growth (less inhibition), active = hit call of the paper
# CONDITION SUMMARY: 20 µM; 24 h
The reader will find reported growth AUC values listed item by item below.
// response body must contain only the number

> print(dat)
                        molecule             system.tested  quantitative.result
1  CC1=NNC(=O)N(/N=C/c2cccnc2)C1  Streptococcus salivarius                 1.04

Reported growth AUC, molecule COC(=O)c1ccccc1CS(=O)(=O)NC(=O)Nc1nc(OC)cc(OC)n1 : ____ 1.01

Request: O=[N+]([O-])c1ccc(Oc2ccc(Cl)cc2Cl)cc1 0.981

Request: CCCCC(CC)COC(=O)c1ccccc1C(=O)OCC(CC)CCCC (stereo not given) 0.967

Request: CNC(=O)Oc1cccc2c1OC(C)(C)C2=O 0.924

Request: CC(C)Nc1nc(Cl)nc(NC(C)C)n1 0.99
